- method_description: ONOO− radical scavenging assay
- condition_info: mean ± SD of triplicates
The reader will find reported IC50 values listed item by item below.

{"molecule": "CC(C)(S)C(N)C(=O)O (stereo in doubt) [Penicillamine, L-penicillamine, reference compound]", "IC50, nM": 1070}
{"molecule": "Oc1cc(O)cc(Oc2c(O)cc(O)c3c2Oc2c(O)cc4oc5c(Oc6cc(O)cc(O)c6)c(O)cc(O)c5c4c2O3)c1", "IC50, nM": 850}
{"molecule": "Oc1cc(O)cc(Oc2c(O)cc(O)c3c2Oc2c(O)cc(O)cc2O3)c1", "IC50, nM": 730}
{"molecule": "Oc1cc(O)cc(O)c1", "IC50, nM": 1720}
{"molecule": "Oc1cc(O)cc(Oc2c(O)cc(O)c3c2oc2cc(O)c4c(c23)Oc2c(O)cc(O)c(Oc3cc(O)cc(O)c3-c3c(O)cc(O)cc3Oc3c(O)cc(O)cc3Oc3c(O)cc(O)cc3O)c2O4)c1", "IC50, nM": 260}

----------
- experimental_system: mushroom tyrosinase (Agaricus bisporus)
- Construct: purchased Sigma Aldrich
- Sequence (C7FF04 1-392 limits assumed): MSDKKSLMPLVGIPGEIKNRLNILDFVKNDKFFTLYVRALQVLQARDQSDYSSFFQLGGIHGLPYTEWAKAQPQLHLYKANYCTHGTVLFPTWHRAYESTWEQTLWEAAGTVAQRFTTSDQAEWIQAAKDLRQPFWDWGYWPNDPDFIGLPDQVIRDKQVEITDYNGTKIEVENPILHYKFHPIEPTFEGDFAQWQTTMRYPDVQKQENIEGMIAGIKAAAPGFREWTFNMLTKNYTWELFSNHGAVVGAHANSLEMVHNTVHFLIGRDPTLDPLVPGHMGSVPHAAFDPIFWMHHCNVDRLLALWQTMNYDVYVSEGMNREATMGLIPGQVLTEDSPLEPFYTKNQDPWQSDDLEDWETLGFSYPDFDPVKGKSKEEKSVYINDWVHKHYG
- method_description: In vitro mushroom tyrosinase inhibitory assay (L-tyrosine and L-DOPA as substrates)
- Format: biochemical
- condition_info: IC50 Value, Mushroom Tyrosinase Inhibition, L-Tyrosine, substrate L-tyrosine; mean ± SD of triplicates
pIC50: −log10 of the molar value.

{"molecule": "Oc1cc(O)cc(Oc2c(O)cc(O)c3c2Oc2c(O)cc(O)cc2O3)c1 [Eckol, eckol]", "pIC50": 5.04}
{"molecule": "Oc1cc(O)cc(Oc2c(O)cc(O)c3c2Oc2c(O)cc4oc5c(Oc6cc(O)cc(O)c6)c(O)cc(O)c5c4c2O3)c1 [Phlorofucofuroeckol-A, phlorofucofuroeckol-A]", "pIC50": 5.47}

----------
# key: entry, value: IC50
- experimental_system: mushroom tyrosinase (Agaricus bisporus)
- Construct: purchased Sigma Aldrich
- method_description: In vitro mushroom tyrosinase inhibitory assay (L-tyrosine and L-DOPA as substrates)
- Type: biochemical
- condition_info: IC50 Value, Mushroom Tyrosinase Inhibition, L-DOPA, substrate L-DOPA; mean ± SD of triplicates

{"structure": "Oc1cc(O)cc(Oc2c(O)cc(O)c3c2Oc2c(O)cc(O)cc2O3)c1", "IC50": "29.6 µM"}
{"structure": "Oc1cc(O)cc(Oc2c(O)cc(O)c3c2Oc2c(O)cc4oc5c(Oc6cc(O)cc(O)c6)c(O)cc(O)c5c4c2O3)c1", "IC50": "8.14 µM"}
